Test system: H3K27 methylation in G401 cell
assay-explanation: ELISA (H3K27 methylation) assay in G401 cells
Format: cell-based, human
measurement-parameters: Homo sapiens, G-401, read-out: (c) IC50, ELISA Qualified
test-readout: IC50 (nM)

As a guide, the following entries are already answered.
COc1ccccc1CNc1ccc(-c2ccc(N3CC(C)N(C)CC3C)nc2)c2nncn12 (stereo not drawn)
105
COc1cccc(F)c1CNc1ccc(-c2cncn2C)c2nncn12
4.3
COc1ccccc1CNc1ccc(-c2ccc(NS(C)(=O)=O)cc2)c2nncn12
330
CN(C)Cc1ccc(-c2ccc(NCc3ccc(F)cc3)n3cnnc23)cc1
1800

(a) COc1cccc(F)c1CNc1ccc(-c2ccc(NS(C)(=O)=O)cc2)c2nncn12
(b) CCN1CCC(S(=O)(=O)c2ccc(-c3ccc(NCc4c(F)cccc4OC)n4cnnc34)cn2)CC1
Please compare: a and b . Report which one has the smaller IC50 value. # reply format: chosen label
b

Entry source: patent US10689378B2
